Each entry below carries its recorded Vd.
Assay: Volume of distribution at steady state in overnight fasted C57BL/6J mouse at 5 mg/kg, iv by LC-MS/MS analysis
Type: ADME, organism-based
Conditions: in vivo, read-out: Vdss
Only the number, expressed in L/kg, is required.

// known answers, use as guide
In [3]: df
Out[3]:
                                   compound  readout_value
0  COc1ccc(C2(C)CCCc3nc(SCc4c(F)cc(OCCOCCOCCN(C)C)cc4F)n(-c4ccc(F)cc4)c32)cc1OC (stereo not given)          0.947
1  COc1cc(C2(C)CCCc3nc(SCc4c(F)cc(OCCOCCOCCN(C)C)cc4F)n(-c4ccc(F)cc4)c32)ccc1F (stereo not given)          0.818

Exercise: # return recorded Vd for entry COc1cc(C2(C)CCCc3nc(SCc4c(F)cc(OCCOCCOCCN(C)C)cc4F)n(-c4ccc(F)cc4)c32)ccc1Cl (stereo not given)
Key: 1.63

Exercise: For COc1cc(C2(C)CCCc3nc(SCc4ncccn4)n(-c4ccc(F)cc4)c32)ccc1Cl (stereo not given) , write its Vd.
Key: 1.43

Exercise: Give reported Vd value for COc1cc(C2(C)CCCc3nc(SCc4ncccn4)n(-c4ccc(F)cc4)c32)ccc1F (stereo not given)
Key: 0.856

====

Assay: Plasma concentration in C57BL/6J mouse at 30 mg/kg, po measured at 2 hrs post dose by LC-MS/MS analysis
Assay type: ADME, organism-based
measure: log10(concentration at 2 h) (log10 of the value in nM)
The figures below represent log10 of concentration at 2 h, where concentration at 2 h is stated in nM.

>>> df
                                   compound  readout_value
0  COc1cc(C2(C)CCCc3nc(SCc4c(F)ccc(OCCOCCOCCN(C)C)c4F)n(-c4ccc(F)cc4)c32)ccc1Cl (configuration not stated)           2.88
1  COc1cc(C2(C)CCCc3nc(SCc4ncccn4)n(-c4ccc(F)cc4)c32)ccc1Cl (configuration not stated)           2.30
2  COc1cc(C2(C)CCCc3nc(SCc4c(F)cc(OCCOCCOCCN(C)C)cc4F)n(-c4ccc(F)cc4)c32)ccc1Cl (configuration not stated)           3.21
3  COc1ccc(C2(C)CCCc3nc(SCc4c(F)cc(OCCOCCOCCN(C)C)cc4F)n(-c4ccc(F)cc4)c32)cc1OC (configuration not stated)           3.34
4  COc1cc(C2(C)CCCc3nc(SCc4ncccn4)n(-c4ccc(F)cc4)c32)ccc1F (configuration not stated)           2.45
5  COc1cc(C2(C)CCCc3nc(SCc4c(F)cc(OCCOCCOCCN(C)C)cc4F)n(-c4ccc(F)cc4)c32)ccc1F (configuration not stated)           3.32

Now consider the entry below.
Exercise: State its log10(concentration at 2 h): COc1ccc(C2(C)CCCc3nc(SCc4ncccn4)n(-c4ccc(F)cc4)c32)cc1OC (configuration not stated)
Key: 2.00

====

Assay: Clearance in overnight fasted C57BL/6J mouse at 5 mg/kg, iv by LC-MS/MS analysis
Assay type: ADME, organism-based
Conditions: in vivo
Classify by measured clearance: true (1) if it is equal to or exceeds 20 mL/min/kg, false (0) if it is smaller.

                                   compound      label
0  COc1cc(C2(C)CCCc3nc(SCc4ncccn4)n(-c4ccc(F)cc4)c32)ccc1F (stereo not given)   true (1)
1  COc1ccc(C2(C)CCCc3nc(SCc4c(F)cc(OCCOCCOCCN(C)C)cc4F)n(-c4ccc(F)cc4)c32)cc1OC (stereo not given)  false (0)
2  COc1cc(C2(C)CCCc3nc(SCc4ncccn4)n(-c4ccc(F)cc4)c32)ccc1Cl (stereo not given)   true (1)
3  COc1cc(C2(C)CCCc3nc(SCc4c(F)cc(OCCOCCOCCN(C)C)cc4F)n(-c4ccc(F)cc4)c32)ccc1F (stereo not given)  false (0)

We now examine a further compound.
Exercise: Does COc1cc(C2(C)CCCc3nc(SCc4c(F)cc(OCCOCCOCCN(C)C)cc4F)n(-c4ccc(F)cc4)c32)ccc1Cl (stereo not given) have a reported clearance of at least 20 mL/min/kg?
Key: false (0)

====

Test: Cmax in overnight fasted C57BL/6J mouse at 20 mg/kg, po administered via gavage by LC-MS/MS analysis
Assay type: ADME, organism-based
Design: dose 20 mg/kg, route oral
Settings: in vivo
Recorded Cmax for the following molecules
Note: unit ng/mL is implicit; provide only the numeric part.

Worked examples, 4 molecules total:
                                   molecule  reading_unit  readout_value
0  COc1cc(C2(C)CCCc3nc(SCc4ncccn4)n(-c4ccc(F)cc4)c32)ccc1F (stereo not given)         ng/mL            913
1  COc1cc(C2(C)CCCc3nc(SCc4ncccn4)n(-c4ccc(F)cc4)c32)ccc1Cl (stereo not given)         ng/mL            507
2  COc1cc(C2(C)CCCc3nc(SCc4c(F)cc(OCCOCCOCCN(C)C)cc4F)n(-c4ccc(F)cc4)c32)ccc1Cl (stereo not given)         ng/mL            918
3  COc1ccc(C2(C)CCCc3nc(SCc4c(F)cc(OCCOCCOCCN(C)C)cc4F)n(-c4ccc(F)cc4)c32)cc1OC (stereo not given)         ng/mL           2890

Attention now shifts to the item below.
Exercise: Assign Cmax to the following record: COc1cc(C2(C)CCCc3nc(SCc4c(F)cc(OCCOCCOCCN(C)C)cc4F)n(-c4ccc(F)cc4)c32)ccc1F (stereo not given)
Key: 2410

====

Test: Bioavailability in overnight fasted C57BL/6J mouse at 5 mg/kg, iv by LC-MS/MS analysis
Type: ADME, organism-based
Conditions: in vivo
measure: bioavailability

Below are worked cases with known answers.
In [3]: df
Out[3]:
                                   molecule  readout_value
0  COc1cc(C2(C)CCCc3nc(SCc4c(F)cc(OCCOCCOCCN(C)C)cc4F)n(-c4ccc(F)cc4)c32)ccc1Cl (stereo not given)          13.9%
1  COc1ccc(C2(C)CCCc3nc(SCc4c(F)cc(OCCOCCOCCN(C)C)cc4F)n(-c4ccc(F)cc4)c32)cc1OC (stereo not given)          27.5%
2  COc1cc(C2(C)CCCc3nc(SCc4ncccn4)n(-c4ccc(F)cc4)c32)ccc1F (stereo not given)          10.8%
3  COc1cc(C2(C)CCCc3nc(SCc4c(F)cc(OCCOCCOCCN(C)C)cc4F)n(-c4ccc(F)cc4)c32)ccc1F (stereo not given)          22.1%

Exercise: For the molecule COc1cc(C2(C)CCCc3nc(SCc4ncccn4)n(-c4ccc(F)cc4)c32)ccc1Cl (stereo not given) , give its reported bioavailability.
Key: 9.44%

====

Test: AUClast in overnight fasted C57BL/6J mouse at 20 mg/kg, po administered via gavage after 24 hrs by LC-MS/MS analysis
Format: ADME, organism-based
Parameters: dose 20 mg/kg, time < 24 hr, route oral
Conditions: in vivo
Use 1 when the recorded AUC(0-t) at 24 h is no lower than 3000 ng·h/mL; use -1 when it is lower.

Some solved cases for reference:
>>> print(df.to_string())
                                   molecule  label
0  COc1cc(C2(C)CCCc3nc(SCc4ncccn4)n(-c4ccc(F)cc4)c32)ccc1Cl (stereo not given)     -1
1  COc1cc(C2(C)CCCc3nc(SCc4c(F)cc(OCCOCCOCCN(C)C)cc4F)n(-c4ccc(F)cc4)c32)ccc1Cl (stereo not given)     -1
2  COc1ccc(C2(C)CCCc3nc(SCc4c(F)cc(OCCOCCOCCN(C)C)cc4F)n(-c4ccc(F)cc4)c32)cc1OC (stereo not given)      1
3  COc1cc(C2(C)CCCc3nc(SCc4c(F)cc(OCCOCCOCCN(C)C)cc4F)n(-c4ccc(F)cc4)c32)ccc1F (stereo not given)      1

Please turn your attention to the following entry.
Exercise: Test whether the molecule COc1cc(C2(C)CCCc3nc(SCc4ncccn4)n(-c4ccc(F)cc4)c32)ccc1F (stereo not given) records AUC(0-t) at 24 h of 3000 ng·h/mL or higher.
Key: -1

====

# half-life values compiled below
Assay: Half life in overnight fasted C57BL/6J mouse at 20 mg/kg, po administered via gavage by LC-MS/MS analysis
Assay type: ADME, organism-based
Conditions: in vivo
Reply with just the number (in h).

Take a look at these entries with their results.
>>> df
                                   compound    measure  readout_value
0  COc1ccc(C2(C)CCCc3nc(SCc4c(F)cc(OCCOCCOCCN(C)C)cc4F)n(-c4ccc(F)cc4)c32)cc1OC (stereo not drawn)  half-life            2.1
1  COc1cc(C2(C)CCCc3nc(SCc4c(F)cc(OCCOCCOCCN(C)C)cc4F)n(-c4ccc(F)cc4)c32)ccc1Cl (stereo not drawn)  half-life           1.33

# ---- query compound ----
Exercise: Quickly give me recorded half-life for COc1cc(C2(C)CCCc3nc(SCc4c(F)cc(OCCOCCOCCN(C)C)cc4F)n(-c4ccc(F)cc4)c32)ccc1F (stereo not drawn)
Key: 2
